B1: MMP1 (parent)
chain: MFFKDRFYMRTNPFYPEVELNFIS

# Variants of: B1
# method: protein stability index of a GFP-peptide fusion (GPS, HEK-293T) (PSI 1-6); higher = more stable;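 note: lentivirally expressed fusions sorted by FACS into six bins by GFP to DsRed ratio, PSI derived from sequencing read proportions per bin multiplied by bin number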
# condition notes: c terminus: a fixed tail appended
Reported protein stability index values for the following variants.
endpoint: protein stability index

>>> result("M9P")
1.93
>>> result("R10V")
3
>>> result("P16R")
1.98
>>> result("L20G")
1.59
>>> result("F2H")
2.93
>>> result("E17V")
2.99
>>> result("F22T")
1.65
>>> result("T11I")
1.63
>>> result("P16E")
3.49
>>> result("N12Q")
2.67
>>> result("Y8D")
2.43
>>> result("N21Q")
3.29
>>> result("D5I")
2.52
>>> result("N12W")
3
>>> result("P13R")
3.31
>>> result("K4S")
3.15
>>> result("D5L")
2.49
>>> result("Y15F")
2.63
>>> result("F3I")
2.64
>>> result("M1V")
3.89
>>> result("Y15P")
2.4
>>> result("D5C")
3.75
>>> result("N12H")
2.87
>>> result("T11Q")
2.59
>>> result("V18C")
2.99
>>> result("Y15N")
2.94
>>> result("E19Y")
3.1
>>> result("N12V")
2.43
>>> result("F2P")
2.06
>>> result("N21C")
3.71
>>> result("P16T")
3.07
>>> result("V18Q")
2.35
>>> result("M9D")
1.75
>>> result("K4H")
3.26
>>> result("P16W")
2.44
>>> result("N21L")
3
>>> result("F22Y")
2.94
>>> result("I23D")
2.65
>>> result("F2S")
2.72
>>> result("R10S")
3.42
